target: Luciferin 4-monooxygenase (Photinus pyralis) (UniProt P08659); test: qHTS assay to identify small molecule inhibitors of firefly luciferase (AID 1224835); note: % is set by controls: 0 for no effect and ±100 for the full control effect; nearly all actives have a fitted effect of over 25% in size; details: purified P. pyralis luciferase, luminescence inhibition; series mostly up to 115 µM
Sequence (P08659 whole entry, looked up): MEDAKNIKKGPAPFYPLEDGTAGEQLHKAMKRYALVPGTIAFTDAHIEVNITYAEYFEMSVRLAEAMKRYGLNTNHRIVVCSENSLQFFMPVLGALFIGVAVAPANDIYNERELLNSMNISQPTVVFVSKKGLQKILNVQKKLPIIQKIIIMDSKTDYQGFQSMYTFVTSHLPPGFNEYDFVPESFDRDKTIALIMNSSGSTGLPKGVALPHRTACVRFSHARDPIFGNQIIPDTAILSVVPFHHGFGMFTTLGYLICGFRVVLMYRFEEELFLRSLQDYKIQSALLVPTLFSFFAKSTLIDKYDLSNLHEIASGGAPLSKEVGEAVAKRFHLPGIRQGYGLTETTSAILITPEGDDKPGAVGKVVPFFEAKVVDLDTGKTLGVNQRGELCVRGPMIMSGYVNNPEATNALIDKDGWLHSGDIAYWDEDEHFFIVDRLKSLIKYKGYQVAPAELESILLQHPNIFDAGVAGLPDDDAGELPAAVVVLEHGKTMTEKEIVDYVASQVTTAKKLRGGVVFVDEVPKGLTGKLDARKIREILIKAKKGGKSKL
Records with an inconclusive call do not appear. Active and inactive are the calls of the source. Calls come from the whole dose curve; as a rule, active = well fitted inhibition curve with a large enough effect in the repeat runs; inconclusive = weak or mixed curves; inactive = flat fitted curve, though single readings scatter.
Result category, one only: true (1) for active, false (0) for inactive

Asked: I'd appreciate the recorded outcome for `CCOC(=O)CS` from this test.
Given back: false (0)

More entries:
Asked: What outcome does the record of this test show for `CC(C)S` ?
Given back: false (0)

---

assay: qHTS assay for small molecules that induce genotoxicity in human embryonic kidney cells expressing luciferase-tagged ATAD5 (AID 651632); conditions: HEK293T ATAD5-luciferase induction, 16 h; series mostly up to 83.3 µM; note: nearly all actives have a fitted effect of over 15% in size; for activation: % is set by controls: 0 for no effect and ±100 for the full control effect
Records with an inconclusive call do not appear. Calls of active or inactive are those of the source. Calls follow the shape of the dose curve; as a rule, active = well fitted activation curve with a large enough effect in the repeat runs; inconclusive = weak or mixed curves; inactive = no such curve, though single readings can be large or run the other way.
Answer with one of the outcomes t (active), f (inactive)

Asked: Record lookup: outcome of this test for `COC(=O)N[C@H](C(=O)N[C@@H](Cc1ccccc1)[C@@H](O)CN(Cc1ccc(-c2ccccn2)cc1)NC(=O)[C@@H](NC(=O)OC)C(C)(C)C)C(C)(C)C` ?
Given back: f

Next:
Asked: What classification did `Nc1ccc(Oc2ccc(N)c(N)c2)cc1` end up with in this test?
Given back: t

Asked: Same again, this time with COC(=O)C(C)O (stereo not drawn)
Given back: f

Asked: For `FC(F)(F)C(F)(F)C(F)(F)C(F)(F)C(F)(F)C(F)(F)C(F)(F)C(F)(F)Br` then?
Given back: f

---

Assay: qHTS assay to identify small molecule agonists of the estrogen related receptor (ERR) signaling pathway from Tox21 library (AID 1224849); note: % is set by controls: 0 for no effect and ±100 for the full control effect; nearly all actives have a fitted effect of over 15% in size
Settings: ERR reporter cell line, ONE-Glo luciferase, 18 h; at 92.4 µM (top of the series) unless noted
Procedure: National Center for Advancing Translational Sciences [NCATS] NIH Chemical Genomics Center [NCGC] U.S. Environmental Protection Agency [EPA] National Institutes of Environmental Health Sciences [NIEHS] National Toxicology Program [NTP] […] The ERR cells were dispensed at 2,000 cells/5 ul/well in 1536-well white plates using a Multidrop dispenser. […] After 30-minute incubation at room temperature, the luminescence intensity in the plates was measured using a ViewLux plate reader.
Activity calls are given as the source filed them. Calls come from the whole dose curve.
outcomeMeasure: activity change, positive = activation

Record excerpt, results attached:
Asked: Given `ICCc1ccccc1` , state its recorded activity change, positive = activation.
Given back: -17.9% (inactive)

Asked: Could you do the same for `CC(C)(C)c1cccc(O)c1` , please?
Given back: 1.25% (inactive)

Asked: Please give the result for `C[C@]12CCC(=O)C=C1CC[C@@H]1[C@@H]2CC[C@@]2(C)[C@H]1CC[C@]2(O)C(=O)CO` too.
Given back: -16% [at 42.5 µM] (inactive)

Asked: Note, next up: `C=CCCC=C`
Given back: 2.68% (inactive)

Next:
Asked: GET /values?readout=activity change, positive = activation&item= `O=CCCc1ccccc1`
Given back: 7.2% (inactive)

Asked: Try the compound `Cc1nc(N)nc(N)c1-c1ccc(Cl)c(Cl)c1`
Given back: -56.5% [at 42.5 µM] (inactive)

Asked: Now consider CCCOc1ccc2c(c1)CC[C@@H]1[C@@H]2CC[C@]2(C)C(OC)CC[C@@H]12 (some centres not stated) .
Given back: -2.22% [at 42.5 µM] (inactive)

---

molecular target: Retinoic acid receptor RXR-alpha (Homo sapiens); assay: qHTS assay to identify small molecule agonists of the RXR signaling pathway (AID 1159527); conditions: HEK293T RXRa-UAS-bla, beta-lactamase ratio, 16 h; series mostly up to 76.8 µM; note: % is set by controls: 0 for no effect and ±100 for the full control effect; nearly all actives have a fitted effect of over 35% in size
Results filed as inconclusive are left out. Active and inactive are the calls of the source. The call rests on the fitted dose curve.
outcomeMeasure: activation

Asked: Would you kindly share the measured activation for `O=S(=O)(O)C(F)(F)F` ?
Given back: inactive

Asked: Also check `CN1CCN(C2=Nc3cc(F)ccc3Cc3ccccc32)CC1`
Given back: inactive

Asked: Similarly, `Oc1ccccc1F` ?
Given back: inactive

Asked: Now this one: `c1ccc(CN(CC2=NCCN2)c2ccccc2)cc1`
Given back: inactive

More entries:
Asked: Fill in: activation of `NNS(=O)(=O)c1ccc(Oc2ccc(S(=O)(=O)NN)cc2)cc1` is ___
Given back: inactive

Asked: Do the same for `C[C@@H]1CN(c2c(F)c(F)c3c(=O)c(C(=O)O)cn(C4CC4)c3c2F)C[C@H](C)N1` please
Given back: 6.08% [at 15.8 µM] (inactive)

---

molecular target: Nuclear receptor subfamily 1 group I member 2 (Rattus norvegicus) (UniProt Q9R1A7); test: Rat pregnane X receptor (rPXR) activation by small molecules, qHTS assay (AID 1346983); details: rPXR luciferase reporter cells, One-Glo luminescence, 24 h; active compounds read high; note: % is set by controls: 0 for no effect and ±100 for the full control effect; nearly all actives have a fitted effect of over 20% in size
Sequence (Q9R1A7 whole entry, looked up): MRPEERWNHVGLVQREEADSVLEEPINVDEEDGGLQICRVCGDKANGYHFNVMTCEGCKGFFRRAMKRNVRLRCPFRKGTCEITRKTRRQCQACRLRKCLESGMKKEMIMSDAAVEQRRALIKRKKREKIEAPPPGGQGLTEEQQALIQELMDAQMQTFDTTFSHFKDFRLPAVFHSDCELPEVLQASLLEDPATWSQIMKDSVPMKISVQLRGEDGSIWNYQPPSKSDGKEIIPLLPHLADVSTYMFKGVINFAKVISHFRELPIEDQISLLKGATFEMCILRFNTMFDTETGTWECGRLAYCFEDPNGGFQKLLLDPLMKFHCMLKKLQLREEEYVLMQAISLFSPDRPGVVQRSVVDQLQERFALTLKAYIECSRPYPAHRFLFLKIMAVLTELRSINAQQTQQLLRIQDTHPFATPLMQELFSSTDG
Records with an inconclusive call do not appear.
Known max activation of a selection of molecules
Numeric answer only, unit % assumed.

For orientation, consider the following solved cases.
Asked: Quick one: max activation of CCCNC(C)C(=O)Nc1c(C)csc1C(=O)OC (configuration not stated) ?
Given back: -1.55

Asked: Same for `CCCCN1C[C@H](O)[C@@H](O)[C@H](O)[C@H]1CO`
Given back: -1.78

Asked: Entry `CN1CCN(c2c(F)cc3c(=O)c(C(=O)O)cn(CCF)c3c2F)CC1` please
Given back: -0.524

Asked: Same thing, different molecule: `CCc1cc(Cl)c(OC)c(C(=O)NC[C@@H]2CCCN2CC)c1O`
Given back: -0.901

Asked: Now the molecule `CCC(=O)Nc1ccc(O)cc1`
Given back: -1.74

***
Asked: What value of measured max activation is listed for `Cc1c(-c2ccccc2)oc2c(C(=O)OCCN3CCCCC3)cccc2c1=O` ?
Given back: -3.87

Asked: CCN1CC(CCN2CCOCC2)C(c2ccccc2)(c2ccccc2)C1=O (configuration not stated) ?
Given back: 9.94

Asked: Continue with `CS(=O)(=O)c1ccc([C@@H](O)[C@@H](CF)NC(=O)C(Cl)Cl)cc1`
Given back: -1.93

Asked: Now this one: `CCCCOc1cc(C(=O)NCCN(CC)CC)c2ccccc2n1`
Given back: -1.11

Asked: Another molecule: `ClC(Cl)Cl`
Given back: 0.159

Asked: Now the same for CCCN(CCC)C(=O)C(CCC(=O)O)NC(=O)c1ccccc1 (configuration not stated)
Given back: 0.444

Asked: Then what about the molecule `CCN(CC)CCNC(=O)COc1ccc(Cl)cc1` ?
Given back: -3.06

---

experiment: qHTS RealTime-Glo MT Cell Viability Assay in HEK293 cells - 8 hour (AID 1224887); conditions: RealTime-Glo luminescence; series mostly up to 76.8 µM; note: top concentration of the series differs between compounds; % is set by controls: 0 for no effect and ±100 for the full control effect; nearly all actives have a fitted effect of over 50% in size
Records with an inconclusive call do not appear. Activity calls are given as the source filed them. The call rests on the fitted dose curve; in most records, active means well fitted cell-killing curve with a large enough effect in the repeat runs; inconclusive means weak or mixed curves, or effect the other way; inactive means flat fitted curve, though single readings scatter.
outcomeMeasure: activity change, negative = cytotoxicity

Asked: I would be grateful if you could share the reported activity change, negative = cytotoxicity for `C[C@@H]1CN(c2c(F)c(F)c3c(=O)c(C(=O)O)cn(C4CC4)c3c2F)C[C@H](C)N1` .
Given back: 0.326% [at 15.8 µM] (inactive)

Asked: What about `CN(C)C(=O)NC1(c2ccccc2)CCN(CCC[C@]2(c3ccc(Cl)c(Cl)c3)CCCN(C(=O)c3ccccc3)C2)CC1` ?
Given back: -28.2% [at 15.8 µM] (inactive)

Asked: Now consider `COC(=O)c1ccc2cc(C(=O)OC)ccc2c1` .
Given back: 0.421% [at 15.8 µM] (inactive)

Others:
Asked: Which value of activity change, negative = cytotoxicity has been reported for `O=C(O)c1ccccc1Nc1cc(Cl)ccc1C(=O)O` in the records?
Given back: -4.99% [at 15.8 µM] (inactive)

Asked: Repeat with `C[C@@H]1CN(c2c(F)c(N)c3c(=O)c(C(=O)O)cn(C4CC4)c3c2F)C[C@H](C)N1`
Given back: 0.0014% [at 15.8 µM] (inactive)

Asked: What do we get for `O=c1oc2c(O)c(O)cc3c(=O)oc4c(O)c(O)cc1c4c23` ?
Given back: -0.845% [at 15.8 µM] (inactive)

---

test: qHTS RealTime-Glo MT Cell Viability Assay in HEK293 cells - 16 hour (AID 1224872); conditions: RealTime-Glo luminescence; series mostly up to 76.8 µM; note: top concentration of the series differs between compounds; % is set by controls: 0 for no effect and ±100 for the full control effect; nearly all actives have a fitted effect of over 50% in size
Records with an inconclusive call do not appear. Calls of active or inactive are those of the source. The call rests on the fitted dose curve; in most records, active means well fitted cell-killing curve with a large enough effect in the repeat runs; inconclusive means weak or mixed curves, or effect the other way; inactive means flat fitted curve, though single readings scatter.
Mark one answer only. Choices: yes (1) for active, no (0) for inactive

Before answering, review these 5 worked examples.
Asked: Hi, sorry to bother you, what did the test record for C=CC1CO1 (stereo not given) ?
Given back: no (0)

Asked: Could you do the same for `C[C@]12CCC(=O)C=C1CC[C@@H]1[C@@H]2CC[C@@]2(C)[C@H]1CC[C@]2(O)C(=O)CO` , please?
Given back: no (0)

Asked: Would you kindly repeat that for `CC(=O)Nc1ccc(C)c(Cl)c1` ?
Given back: no (0)

Asked: Another compound: CCCC1CCC(=O)O1 (stereo not given)
Given back: no (0)

Asked: Can you check `NC/C=C/C(=O)O` next?
Given back: no (0)

--- query ---
Asked: For this compound, state the assay outcome: `CC/C=C\CCOC(=O)C(C)C`
Given back: no (0)
